Tested on: HaCat
Assay: Cytotoxic Profiling of Annotated Libraries Using Quantitative High-Throughput Screening (AID 1296008); further: on the % scale 0 is the no-effect control and ±100 the full control effect; nearly all actives have a fitted effect of over 60% in size
Conditions: Five cell lines viability, CellTiter-Glo ATP luminescence, 48-72 h; active compounds read low
Procedure: Cell-based phenotypic screening is a commonly used approach to discover biological pathways, novel drug targets, chemical probes and high-quality hit-to-lead molecules. […] A pintool (Kalypsys) was used to transfer 23 nL of compound solution to the 1536-well assay plates. […] Plates were left at room temperature for 10 min before imaging the ATP-coupled luminescence using a ViewLux microplate imager (PerkinElmer, Waltham, MA).
Results filed as inconclusive are left out.
READOUT: max response (%)

>>> reported_result("C=C[C@H]1[C@H](O[C@@H]2O[C@H](CO)[C@@H](O)[C@H](O)[C@H]2O)OC=C(C(=O)OC)[C@H]1C[C@@H]1c2cc(O)c(O)cc2CCN1C(C)=O")
3.48
>>> reported_result("COCC1OC(OC(C)(C)C2CCC3(C)C=C(C4CCC5C4(C)CC(O)C4OC(C(C)(C)OC6OC(CO)C(O)C(O)C6NC(C)=O)CCC45C)CCC3O2)C(NC(C)=O)C(O)C1O (stereo not drawn)")
-6.25
>>> reported_result("C/C(=C/CO)CC[C@@H]1[C@@](C)(O)CCC2C(C)(C)CCC[C@]21C (stereo partly drawn)")
0.603
